# target of assay: Tyrosinase (Homo sapiens, UniProt P14679)
# Sequence (P14679 whole entry): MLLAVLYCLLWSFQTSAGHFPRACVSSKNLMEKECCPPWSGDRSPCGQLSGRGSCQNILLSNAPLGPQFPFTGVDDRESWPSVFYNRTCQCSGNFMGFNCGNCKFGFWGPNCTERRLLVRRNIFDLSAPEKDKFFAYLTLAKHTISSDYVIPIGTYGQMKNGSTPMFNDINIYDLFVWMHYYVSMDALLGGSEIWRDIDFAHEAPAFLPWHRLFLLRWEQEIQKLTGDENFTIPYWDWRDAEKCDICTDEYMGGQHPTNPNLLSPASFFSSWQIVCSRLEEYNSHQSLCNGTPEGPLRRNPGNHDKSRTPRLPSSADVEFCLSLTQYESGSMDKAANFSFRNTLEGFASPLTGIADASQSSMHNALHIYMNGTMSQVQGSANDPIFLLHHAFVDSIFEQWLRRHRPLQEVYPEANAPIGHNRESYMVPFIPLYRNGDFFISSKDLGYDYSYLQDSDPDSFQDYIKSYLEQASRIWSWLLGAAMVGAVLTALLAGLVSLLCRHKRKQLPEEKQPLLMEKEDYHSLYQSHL
# test: Inhibition of human HMV-II cell derived tyrosinase using L-DOPA as substrate by light absorbance method
# Format: cell-based, HMV-2 cell line
experimental endpoint: IC50 (nM)

smiles record: COC1=CC(=C/C=C/C=C2C=C(OC)C(=O)C(OC)=C2)C=C(OC)C1=O
observed measurement: 2500

---

# target of assay: Tyrosinase (Homo sapiens)
# Sequence (P14679 whole entry): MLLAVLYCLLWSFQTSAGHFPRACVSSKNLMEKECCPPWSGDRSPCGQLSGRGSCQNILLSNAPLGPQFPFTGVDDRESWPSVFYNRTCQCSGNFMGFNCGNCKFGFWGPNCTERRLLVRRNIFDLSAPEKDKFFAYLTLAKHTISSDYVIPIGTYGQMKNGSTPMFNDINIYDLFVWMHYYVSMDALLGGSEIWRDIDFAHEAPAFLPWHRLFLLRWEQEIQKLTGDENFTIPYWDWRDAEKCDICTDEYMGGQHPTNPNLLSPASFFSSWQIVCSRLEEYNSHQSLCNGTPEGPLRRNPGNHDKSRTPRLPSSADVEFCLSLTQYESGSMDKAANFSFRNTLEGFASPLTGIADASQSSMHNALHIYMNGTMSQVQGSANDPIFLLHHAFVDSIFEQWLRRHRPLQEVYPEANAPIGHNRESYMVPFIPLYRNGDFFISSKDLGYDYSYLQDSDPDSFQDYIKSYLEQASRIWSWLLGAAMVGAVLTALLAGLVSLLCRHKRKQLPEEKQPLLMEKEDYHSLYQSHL
# test: Inhibition of human tyrosinase using L- DOPA as substrate by MBTH based assay
Items are presented alongside their recorded log10 IC50.
experimental endpoint: log10 IC50 (log10 of the value in nM)

smiles record: CC(C)(C)C(=O)Nc1nc(-c2ccc(O)cc2O)cs1
target of assay: Tyrosinase (Homo sapiens)
log10 IC50: 3.15
//
smiles record: O=C(Nc1nc(-c2ccc(O)cc2O)cs1)C1CCCCC1
target of assay: Tyrosinase (Homo sapiens)
log10 IC50: 3.66
//
smiles record: O=C(Nc1nc(-c2ccc(O)cc2O)cs1)c1ccc(CO)cc1
target of assay: Tyrosinase (Homo sapiens)
log10 IC50: 3.20
//
smiles record: CC(=O)Nc1nc(-c2ccc(O)cc2O)cs1
target of assay: Tyrosinase (Homo sapiens)
log10 IC50: 3.51
//
smiles record: O=C(Nc1nc(-c2ccc(O)cc2O)cs1)c1ccccc1
target of assay: Tyrosinase (Homo sapiens)
log10 IC50: 3.40
//
smiles record: Oc1ccc(-c2csc(Nc3ncccn3)n2)c(O)c1
target of assay: Tyrosinase (Homo sapiens)
log10 IC50: 3.51
//
smiles record: O=C(O)c1ccc(Nc2nc(-c3ccc(O)cc3O)cs2)cc1
target of assay: Tyrosinase (Homo sapiens)
log10 IC50: 3.41
//
smiles record: Nc1nc(-c2ccc(O)cc2O)cs1
target of assay: Tyrosinase (Homo sapiens)
log10 IC50: 4.71

---

# target of assay: UniProt P14679
# test: Inhibition of tyrosinase in human melanocytes using L-[3,5-3H]-tyrosine as substrate incubated for 1 to 3 days by liquid scintillation counting method
# Type: cell-based, Melanocyte
pIC50: −log10 of the molar value.
experimental endpoint: pIC50

smiles record: CC(C)(C)c1ccc(O)cc1
observed measurement: 5.00

---

# target of assay: Tyrosinase (Homo sapiens)
# test: Inhibition of human His-tagged tyrosinase expressed in HEK 293 cells using L-DOPA as substrate by Lineweaver-Burk plot analysis
# Parameters: species or system HEK293
pKi: −log10 of the molar value.
Items are presented alongside their recorded pKi.
experimental endpoint: pKi

compound: CCCCCCc1ccc(O)cc1O [HEXYLRESORCINOL]
target of assay: Tyrosinase (Homo sapiens)
experimental endpoint: pKi
observed measurement: 4.41

compound: CCCCc1ccc(O)cc1O [RUCINOL]
target of assay: Tyrosinase (Homo sapiens)
experimental endpoint: pKi
observed measurement: 5.04

compound: CC(C)C(=O)Nc1nc(-c2ccc(O)cc2O)cs1
target of assay: Tyrosinase (Homo sapiens)
experimental endpoint: pKi
observed measurement: 6.60

compound: CC(c1ccccc1)c1ccc(O)cc1O (centres undefined)
target of assay: Tyrosinase (Homo sapiens)
experimental endpoint: pKi
observed measurement: 4.62

---

# target of assay: Tyrosinase (Homo sapiens)
# test: Inhibition of human tyrosinase expressed in Escherichia coli
pKi: −log10 of the molar value.

compound: O=c1oc2ccccc2cc1O [3-HYDROXYCOUMARIN]
target of assay: Tyrosinase (Homo sapiens)
pKi: 5.47

---

# target of assay: Tyrosinase (Homo sapiens, UniProt P14679)
# test: Inhibition of tyrosinase in human neonatal foreskin epidermal melanocyte cells using L-DOPA as substrate preincubated for 24 hrs followed by cell lysis and subsequent substrate addition and measured after 1 hr by ELISA
# Format: cell-based
pIC50: −log10 of the molar value.

smiles record: O=C(CCc1ccc(O)c(O)c1)c1c(O)cc(O)cc1O
pIC50: 4.49
--
smiles record: COc1cc(/C=C\C(=O)NCCCCNC(=O)/C=C/c2ccc(O)c(OC)c2)ccc1O
pIC50: 4.07

---

# target of assay: UniProt P14679
# test: Inhibition of human HMV-II cell derived tyrosinase using DOPA as substrate incubated for 5 mins by light absorbance method
# Set-up: species or system HMV-2 cell line
pIC50: −log10 of the molar value.

smiles record: Oc1ccc2cc[nH]c2c1
target of assay: UniProt P14679
pIC50: 4.66

---

# target of assay: Tyrosinase (Homo sapiens, UniProt P14679)
# test: Inhibition of human tyrosinase expressed in HEK293 cells
# Type: cell-based
Items are presented alongside their recorded IC50.

compound: O=C(/C=C/c1ccc(O)cc1)OC1=C(O)[C@@H]([C@H](O)CO)OC1=O
IC50, µM: 40
--
compound: O=C(/C=C/c1ccc(O)cc1)OC1=C(O)C(=O)O[C@@H]1[C@H](O)CO
IC50, µM: 10
--
compound: O=C(O)/C=C/c1ccc(O)cc1 [COUMARIC ACID]
IC50, µM: 2
--
compound: Oc1ccc(/C=C/c2cc(O)cc(O)c2)cc1 [RESVERATROL]
IC50, µM: 9

---

# target of assay: Tyrosinase (Homo sapiens, UniProt P14679)
# test: Mixed inhibition of recombinant human tyrosinase expressed in baculovirus infected sf9 cells using L-DOPA as substrate by double-reciprocal plot analysis

smiles record: O=C(O)c1ccccc1
measure unit: µM
Ki: 520

---

# target of assay: Tyrosinase (Homo sapiens)
# Sequence (P14679 whole entry): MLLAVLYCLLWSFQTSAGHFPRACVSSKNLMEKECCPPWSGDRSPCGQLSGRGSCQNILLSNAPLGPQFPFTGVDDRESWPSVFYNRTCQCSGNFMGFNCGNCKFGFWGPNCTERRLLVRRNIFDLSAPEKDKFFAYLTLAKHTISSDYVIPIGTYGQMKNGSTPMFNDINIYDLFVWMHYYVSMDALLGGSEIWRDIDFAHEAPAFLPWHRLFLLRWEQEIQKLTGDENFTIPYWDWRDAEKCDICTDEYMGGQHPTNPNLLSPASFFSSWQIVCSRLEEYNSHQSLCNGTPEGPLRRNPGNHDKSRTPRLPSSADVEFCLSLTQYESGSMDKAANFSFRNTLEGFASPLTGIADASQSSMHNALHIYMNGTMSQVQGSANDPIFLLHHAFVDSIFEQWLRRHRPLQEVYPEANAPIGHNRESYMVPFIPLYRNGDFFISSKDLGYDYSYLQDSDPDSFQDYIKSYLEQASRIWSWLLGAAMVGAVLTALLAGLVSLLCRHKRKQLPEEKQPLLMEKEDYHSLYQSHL
# test: Inhibition of human tyrosinase expressed in human SKMEL188 cell lysate using L- DOPA as substrate incubated for 8 hrs
# Assay type: subcellular, SK-MEL-188
experimental endpoint: IC50 (nM)

smiles record: N[C@H](Cc1ccccc1)C(=O)O[C@H]1CC[C@H](c2ccc(O)cc2O)CC1
experimental endpoint: IC50
observed measurement: 2000
